System: 292921-168-R-J2-PDC KRAS tumor spheroid viability;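 note: drug exposure lasted seven days after spheroids formed for three days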
assay: Anticancer human tumor 292921-168-R-J2-PDC patient-derived pancreatic carcinoma cell line growth inhibition [KRAS2]
assaySetup: second compound 10 µM; first compound 0.0316 µM; stronger effect = lower value; spheroids with HUVEC and MSC
We'd kindly ask you to apply these viability, T/C classes: low value (below 20%), medium value (20% to below 30%), high value (30% or more)

[
  {
    "compound": "CC(=O)Nc1cccc(-n2c(=O)n(C3CC3)c(=O)c3c(Nc4ccc(I)cc4F)n(C)c(=O)c(C)c32)c1 + C=CC(=O)N1CCN(c2nc(=O)n(-c3c(C)ccnc3C(C)C)c3nc(-c4c(O)cccc4F)c(F)cc23)C(C)C1",
    "labelClass": "low value"
  },
  {
    "compound": "COc1cc2nccc(Oc3ccc(NC(=O)C4(C(=O)Nc5ccc(F)cc5)CC4)cc3)c2cc1OC + CNCc1ccccc1-c1csc(C(C)Nc2nc(C)nc3cc(OC)c(OC)cc23)c1",
    "labelClass": "low value"
  },
  {
    "compound": "COc1cc(Nc2ncc3c(n2)-c2ccc(Cl)cc2C(c2c(F)cccc2OC)=NC3)ccc1C(=O)O + CC1OCC2(CCN(c3cnc(Sc4ccnc(N)c4Cl)c(N)n3)CC2)C1N",
    "labelClass": "low value"
  },
  {
    "compound": "CCN1CCN(Cc2ccc(Nc3ncc(F)c(-c4cc(F)c5nc(C)n(C(C)C)c5c4)n3)nc2)CC1 + C=CC(=O)N1CCN(c2nc(=O)n(-c3c(C)ccnc3C(C)C)c3nc(-c4c(O)cccc4F)c(F)cc23)C(C)C1",
    "labelClass": "medium value"
  },
  {
    "compound": "Cn1ncnc1[C@H]1c2n[nH]c(=O)c3cc(F)cc(c23)N[C@@H]1c1ccc(F)cc1 + CNCc1ccccc1-c1csc(C(C)Nc2nc(C)nc3cc(OC)c(OC)cc23)c1",
    "labelClass": "low value"
  }
]

*Q* State the band of COc1cc2nccc(Oc3ccc(NC(=O)C4(C(=O)Nc5ccc(F)cc5)CC4)cc3)c2cc1OC + C=CC(=O)N1CCN(c2nc(=O)n(-c3c(C)ccnc3C(C)C)c3nc(-c4c(O)cccc4F)c(F)cc23)C(C)C1
*A* low value

*Q* # bin label for CC(C)NCC(C(=O)N1CCN(c2ncnc3c2C(C)CC3O)CC1)c1ccc(Cl)cc1 (stereo unspecified) + CC1OCC2(CCN(c3cnc(Sc4ccnc(N)c4Cl)c(N)n3)CC2)C1N
*A* high value

*Q* Kindly state the category for this compound: CCNC(=O)CC1N=C(c2ccc(Cl)cc2)c2cc(OC)ccc2-n2c(C)nnc21 (stereo unspecified) + CC1OCC2(CCN(c3cnc(Sc4ccnc(N)c4Cl)c(N)n3)CC2)C1N
*A* high value

*Q* Which bin, given its viability, T/C, does CC1OCC2(CCN(c3cnc(Sc4ccnc(N)c4Cl)c(N)n3)CC2)C1N (stereo unspecified) + C=CC(=O)N1CCN(c2nc(=O)n(-c3c(C)ccnc3C(C)C)c3nc(-c4c(O)cccc4F)c(F)cc23)C(C)C1 occupy?
*A* low value

*Q* Category of O=C(c1cc(Cc2n[nH]c(=O)c3ccccc23)ccc1F)N1CCN(C(=O)C2CC2)CC1 + CC1OCC2(CCN(c3cnc(Sc4ccnc(N)c4Cl)c(N)n3)CC2)C1N , please.
*A* high value

*Q* State the band of Cn1ncnc1[C@H]1c2n[nH]c(=O)c3cc(F)cc(c23)N[C@@H]1c1ccc(F)cc1 + COc1cc2nc(C)nc(NC(C)c3cc(N)cc(C(F)(F)F)c3)c2cc1OC1CCOC1
*A* medium value

*Q* Category of CC(C)n1nc(-c2ccc3oc(N)nc3c2)c2c(N)ncnc21 + COc1cc2nc(C)nc(NC(C)c3cc(N)cc(C(F)(F)F)c3)c2cc1OC1CCOC1 :
*A* low value

*Q* Each compound maps to one class by viability, T/C. Which class for CCN1CCN(Cc2ccc(Nc3ncc(F)c(-c4cc(F)c5nc(C)n(C(C)C)c5c4)n3)nc2)CC1 + CNCc1ccccc1-c1csc(C(C)Nc2nc(C)nc3cc(OC)c(OC)cc23)c1 ?
*A* low value

*Q* Band of O=C(c1cc(Cc2n[nH]c(=O)c3ccccc23)ccc1F)N1CCN(C(=O)C2CC2)CC1 + C=CC(=O)N1CCN(c2nc(=O)n(-c3c(C)ccnc3C(C)C)c3nc(-c4c(O)cccc4F)c(F)cc23)C(C)C1 ?
*A* medium value

*Q* In plain terms, what class is CCN1CCN(Cc2ccc(Nc3ncc(F)c(-c4cc(F)c5nc(C)n(C(C)C)c5c4)n3)nc2)CC1 + COc1cc2nc(C)nc(NC(C)c3cc(N)cc(C(F)(F)F)c3)c2cc1OC1CCOC1 ?
*A* low value
